Tested on: Aspergillus foetidus
Experiment: Antifungal activity against Aspergillus foetidus isolate CM-5264 obtained from respiratory tract infection of patient after 48 hrs by EUCAST broth dilution method
Type: functional
Details: isolate CM-5264, 48 h
Assign MIC to each entry below.

{"molecule": "CCC(C)n1ncn(-c2ccc(N3CCN(c4ccc(OCC5COC(Cn6cncn6)(c6ccc(Cl)cc6Cl)O5)cc4)CC3)cc2)c1=O (stereo unspecified)", "value.type": "MIC", "endpoint.value": "16 µg/mL"}
{"molecule": "CN(C/C=C/C#CC(C)(C)C)Cc1cccc2ccccc12", "value.type": "MIC", "endpoint.value": "0.5 µg/mL"}
{"molecule": "CC[C@@H]([C@H](C)O)n1ncn(-c2ccc(N3CCN(c4ccc(OC[C@@H]5CO[C@@](Cn6cncn6)(c6ccc(F)cc6F)C5)cc4)CC3)cc2)c1=O", "value.type": "MIC", "endpoint.value": "0.5 µg/mL"}
{"molecule": "C[C@@H](c1nc(-c2ccc(C#N)cc2)cs1)[C@](O)(Cn1cncn1)c1ccc(F)cc1F", "value.type": "MIC", "endpoint.value": "8 µg/mL"}
{"molecule": "C[C@@H]1[C@H](O)[C@@H](C)/C=C/C=C/C=C/C=C/C=C/C=C/C=C/[C@H](O[C@@H]2O[C@H](C)[C@@H](O)[C@H](N)[C@@H]2O)C[C@@H]2O[C@](O)(C[C@@H](O)C[C@@H](O)[C@H](O)CC[C@@H](O)C[C@@H](O)CC(=O)O[C@H]1C)C[C@H](O)[C@H]2C(=O)O", "value.type": "MIC", "endpoint.value": "0.12 µg/mL"}

Ask: So what does the record say about MIC for C[C@@H](c1ncncc1F)[C@](O)(Cn1cncn1)c1ccc(F)cc1F ?
Result: 2 µg/mL

Sourced from ChEMBL document CHEMBL1649226
